Test: Cell Viability - HepG2 (AID 433);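 note: potency is the fitted concentration of half-maximal effect; cells exposed to compound for 40 hours; potency for ATP loss meaning cytotoxicity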
Details: qHTS
Text: NIH Chemical Genomics Center [NCGC] NIH Molecular Libraries Screening Centers Network [MLSCN] National Institutes of Environmental Health Sciences [NIEHS] National Toxicology Program [NTP] We have developed a 1536-well cell-based assay for quantitative high throughput screening (qHTS) against a number of cell lines to determine in vitro cytotoxicity of small molecules. […] 8. Detection; Luminescence; Viewlux plate reader […]
Inconclusive results are not listed. Active and inactive are the calls of the source. Calls come from the whole dose curve.
Please go through the items and note down their Potency.

{"compound": "O=C(O)c1ccccc1C(c1ccc(O)cc1)c1ccc(O)cc1", "test_result": "> 92 µM (inactive)"}

Please give Potency, item by item, for the list that follows.
1. C=CCc1ccc(OC)c(OC)c1
2. COC(=O)CCCCC(=O)OC
3. C=C(C)C1CC=C(C)C(O)C1 (stereo not drawn)
4. CCCCCCCCO
5. O=S(=O)(O)c1ccccc1
6. C[C@H](CCC(=O)O)[C@H]1CC[C@H]2[C@@H]3CC[C@@H]4C[C@H](O)CC[C@]4(C)[C@H]3CC[C@]12C
7. CCCN(CCC)C(=O)SCC

1. > 92 µM (inactive)
2. > 92 µM (inactive)
3. > 92 µM (inactive)
4. > 92 µM (inactive)
5. > 92 µM (inactive)
6. > 92 µM (inactive)
7. > 92 µM (inactive)

Provide each entry's Potency from the list below.
1. Cc1ccc([N+](=O)[O-])cc1N
2. O=C(O)CC(C(=O)O)C(CC(=O)O)C(=O)O (stereo not drawn)

["> 92 µM (inactive)", "> 92 µM (inactive)"]

Go through the items and report each one's Potency.
1. CCCCC(CC)CN (stereo not drawn)
2. O=NO
3. c1ccc2scnc2c1
4. c1ccccc1

["> 92 µM (inactive)", "> 92 µM (inactive)", "> 92 µM (inactive)", "> 92 µM (inactive)"]

* * *

Test: qHTS assay for small molecule antagonists of the retinoid-related orphan receptor gamma (ROR-gamma) signaling pathway - cell viability counter screen (AID 720652);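 note: compound exposure lasted 16 hr before ATP read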
Conditions: RORgamma reporter cell line viability counter screen; series mostly up to 92.2 µM
Protocol: National Center for Advancing Translational Sciences [NCATS] NIH Chemical Genomics Center [NCGC] National Institutes of Environmental Health Sciences [NIEHS] National Toxicology Program [NTP] […] The CHO cell-based assay utilizes a TET-inducible ROR expression factor and ROR response element-LUC reporter gene. Reporter activity was induced using doxycycline and measured after 16hr incubation. […]
Inconclusive results are not listed. Activity calls are given as the source filed them. Calls follow the shape of the dose curve; as a rule, active = well fitted cell-killing curve with a large enough effect in the repeat runs; inconclusive = weak or mixed curves, or effect the other way; inactive = flat fitted curve, though single readings scatter.
measurement_type: outcome

These solved cases illustrate the format of a correct answer.
{"compound": "CCO", "measurement_type": "outcome", "test_result": "inactive"}
{"compound": "O[C@@H]([C@H](O)[C@@H](O)CBr)[C@@H](O)CBr", "measurement_type": "outcome", "test_result": "inactive"}
{"compound": "Clc1cc(Cl)c(Cl)cc1Cl", "measurement_type": "outcome", "test_result": "inactive"}
{"compound": "CN(C)CCCCCCN(C)C", "measurement_type": "outcome", "test_result": "inactive"}
{"compound": "COc1ccc(/C=C/c2cc(OC)cc(=O)o2)cc1", "measurement_type": "outcome", "test_result": "inactive"}
{"compound": "Nc1ccc(Cl)cc1Cl", "measurement_type": "outcome", "test_result": "inactive"}

Look at each compound and report its outcome.
1. C=CC(=C)CCC=C(C)C
2. C1OCOCO1
3. CC12CCC(CC1=O)C2(C)C (configuration not stated)
4. c1ccc2scnc2c1
5. c1ccc2c(c1)c1cccc3ccc4cccc2c4c31
6. O=S(=O)(O)c1ccccc1
7. CC1=C2[C@H](/C=C(\C)C(=O)O)CC[C@@H](C)[C@H]2CC1

1. inactive
2. inactive
3. inactive
4. inactive
5. inactive
6. inactive
7. inactive

Kindly give each listed record's outcome.
1. CC1=CC(C)(C)Nc2ccccc21
2. COc1c2ccoc2cc2oc(=O)ccc12
3. CC(=O)OC/C=C(\C)CCC=C(C)C
4. COCC(=O)O

["inactive", "inactive", "inactive", "inactive"]

For every record below, what is its outcome?
1. C=CCOC(=O)c1ccccc1C(=O)OCC=C
2. Cc1ccc([N+](=O)[O-])c(C)c1
3. Clc1cc(Cl)c(Cl)c(Cl)c1Cl
4. CCCCCCCCCCCCCC(=O)O

1. inactive
2. inactive
3. inactive
4. inactive
